The reported numbers originate from patent US20220177604A1.

// koff lookup, one value per entry
target-under-test: T1, human immunoglobulin E (hIgE) (human, UniProt P01854-1 1-428)
T1 construct: also called human IgE; Native IgE (Abcam)
T1 sequence (P01854 whole entry): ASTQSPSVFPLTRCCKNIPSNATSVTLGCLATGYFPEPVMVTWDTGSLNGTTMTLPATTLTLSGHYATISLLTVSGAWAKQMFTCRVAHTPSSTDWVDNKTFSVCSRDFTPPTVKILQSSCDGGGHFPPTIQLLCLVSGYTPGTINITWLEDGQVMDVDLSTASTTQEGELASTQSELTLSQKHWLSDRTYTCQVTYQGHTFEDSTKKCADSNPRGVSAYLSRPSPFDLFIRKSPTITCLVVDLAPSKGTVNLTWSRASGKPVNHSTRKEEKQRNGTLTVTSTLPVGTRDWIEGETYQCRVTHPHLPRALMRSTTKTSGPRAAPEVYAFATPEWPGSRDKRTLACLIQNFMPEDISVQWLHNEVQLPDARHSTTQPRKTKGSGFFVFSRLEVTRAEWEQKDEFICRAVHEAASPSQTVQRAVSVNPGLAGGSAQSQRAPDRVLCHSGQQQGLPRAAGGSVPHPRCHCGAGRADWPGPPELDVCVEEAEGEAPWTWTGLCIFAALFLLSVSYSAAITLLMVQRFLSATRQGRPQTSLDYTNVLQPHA
protocol-details: SPR (Biacore), pH 6.0
Number only, in s⁻¹; omit the unit.

Below, each entry is followed by its recorded koff result.
Oma VH15W100b - VL3 (antibody, V domains shown) VH: EVQLVESGGGLVQPGGSLRLSCAVSGYSITSGHRWEWIRQAPGKGLEWVASIHYDGSTNYNPSVKGRITISRDDSKNTFYLQMNSLRAEDTAVYYCARATHYFGHHHFAVWGQGTLVTVSS VL: DIQLTQSPSSLSASVGDRVTITCRASQSVDYDGDSYMNWYQQKPGKAPKLLIEWGSYLRSGVPSRFSGSGSGTDFTLTISSLQPEDFATYYCQQNAEDPYTFGQGTKVEIK
0.00875
OmaVH15G55H - VL3D28HS31H (antibody, V domains shown) VH: EVQLVESGGGLVQPGGSLRLSCAVSGYSITSGHRWEWIRQAPGKGLEWVASIHYDHSTNYNPSVKGRITISRDDSKNTFYLQMNSLRAEDTAVYYCARATHYFGHWHFAVWGQGTLVTVSS VL: DIQLTQSPSSLSASVGDRVTITCRASQSVDYHGDHYMNWYQQKPGKAPKLLIEWGSYLRSGVPSRFSGSGSGTDFTLTISSLQPEDFATYYCQQNAEDPYTFGQGTKVEIK
0.00527

Inquiry: Name the recorded koff for Oma VH15W100b - VL3S31H (antibody, V domains shown) VH: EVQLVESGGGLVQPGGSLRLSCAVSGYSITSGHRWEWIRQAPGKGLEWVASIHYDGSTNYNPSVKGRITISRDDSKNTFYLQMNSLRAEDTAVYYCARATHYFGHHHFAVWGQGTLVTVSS VL: DIQLTQSPSSLSASVGDRVTITCRASQSVDYDGDHYMNWYQQKPGKAPKLLIEWGSYLRSGVPSRFSGSGSGTDFTLTISSLQPEDFATYYCQQNAEDPYTFGQGTKVEIK .
Reply text: 0.0375
